A collection of binders and their measured EC50
Biological target: T1, huCTGF domains 1 and 2 with human Fc tag (human)
T1 construct: Made by Evitria; also called Human CTGF1-2-huFc
T1 sequence (chain, as listed by the source limits assumed): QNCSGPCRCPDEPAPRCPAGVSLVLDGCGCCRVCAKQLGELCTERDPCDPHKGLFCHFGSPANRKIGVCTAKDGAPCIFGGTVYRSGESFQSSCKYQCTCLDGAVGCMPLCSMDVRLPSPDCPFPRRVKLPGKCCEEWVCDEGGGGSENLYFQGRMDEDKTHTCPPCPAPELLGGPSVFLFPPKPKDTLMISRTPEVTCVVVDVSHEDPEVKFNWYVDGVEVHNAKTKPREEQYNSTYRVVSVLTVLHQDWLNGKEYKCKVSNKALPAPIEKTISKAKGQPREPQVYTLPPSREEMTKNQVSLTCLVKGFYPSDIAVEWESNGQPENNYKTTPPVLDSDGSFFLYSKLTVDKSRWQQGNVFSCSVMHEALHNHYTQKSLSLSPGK
Assay: ELISA, coated target

These solved cases illustrate the format of a correct answer.
lipocalin mutein of SEQ ID NO: 7 (designed binder, Parent hNGAL mutein; also called hNGAL mutein) QDSTSDLIPAPPLSKVPLQQNFQDNQFHGKWYVVGLAGNYGLRTDKRPSKMFATIYELKEDKSYDVTSVRFEQERCHYTIRTFVPGSQPGEFTTGSIKSRPGQTSSLVRVVSTNYNQHAMVFFKSVIQNREYFAITLYGRTKELTSELKENFIRFSKSLGLPENHIVFPVPIDQCIDGSAWSHPQFEK ... 17 nM
lipocalin mutein of SEQ ID NO: 29 (designed binder, Parent hNGAL mutein; also called hNGAL mutein) QDSTSDLIPAPPLSKVPLQQNFQDNQFHGKWYVVGWAGNIKLREDKDPFKMSATIYELKEDKSYNVTEVVFEQKKCHYIIKTFVPGSQPGEFTLGDIKSPPGETSSLVRVVSTNYNQHAMVFFKKVFQNREFFWITLYGRTKELTSELKENFIRFSKSLGLPENHIVFPVPIDQCIDGSAWSHPQFEK ... 8.4 nM

Can you share its EC50? I mean this binder: lipocalin mutein of SEQ ID NO: 25 (designed binder, Parent hNGAL mutein; also called hNGAL mutein) QDSTSDLIPAPPLSKVPLQQNFQDNQFHGKWYVVGMAGNFRLREDKDPSKMGATIYELKEDKSYNVTQVQFDDKKCLYVIETFVPGSQPGEFTLGAIKSFPGFTSQLVRVVSTNYNQHAMVFFKKVYQNREVFWITLYGRTKELTSELKENFIRFSKSLGLPENHIVFPVPIDQCIDGSAWSHPQFEK 8.8 nM

Cited source: patent US20240228562A1
